Biological target: Hexokinase-II enzyme (Homo sapiens, UniProt P52789)
Construct: purchased Abcam ab211114
Sequence (P52789 1-917): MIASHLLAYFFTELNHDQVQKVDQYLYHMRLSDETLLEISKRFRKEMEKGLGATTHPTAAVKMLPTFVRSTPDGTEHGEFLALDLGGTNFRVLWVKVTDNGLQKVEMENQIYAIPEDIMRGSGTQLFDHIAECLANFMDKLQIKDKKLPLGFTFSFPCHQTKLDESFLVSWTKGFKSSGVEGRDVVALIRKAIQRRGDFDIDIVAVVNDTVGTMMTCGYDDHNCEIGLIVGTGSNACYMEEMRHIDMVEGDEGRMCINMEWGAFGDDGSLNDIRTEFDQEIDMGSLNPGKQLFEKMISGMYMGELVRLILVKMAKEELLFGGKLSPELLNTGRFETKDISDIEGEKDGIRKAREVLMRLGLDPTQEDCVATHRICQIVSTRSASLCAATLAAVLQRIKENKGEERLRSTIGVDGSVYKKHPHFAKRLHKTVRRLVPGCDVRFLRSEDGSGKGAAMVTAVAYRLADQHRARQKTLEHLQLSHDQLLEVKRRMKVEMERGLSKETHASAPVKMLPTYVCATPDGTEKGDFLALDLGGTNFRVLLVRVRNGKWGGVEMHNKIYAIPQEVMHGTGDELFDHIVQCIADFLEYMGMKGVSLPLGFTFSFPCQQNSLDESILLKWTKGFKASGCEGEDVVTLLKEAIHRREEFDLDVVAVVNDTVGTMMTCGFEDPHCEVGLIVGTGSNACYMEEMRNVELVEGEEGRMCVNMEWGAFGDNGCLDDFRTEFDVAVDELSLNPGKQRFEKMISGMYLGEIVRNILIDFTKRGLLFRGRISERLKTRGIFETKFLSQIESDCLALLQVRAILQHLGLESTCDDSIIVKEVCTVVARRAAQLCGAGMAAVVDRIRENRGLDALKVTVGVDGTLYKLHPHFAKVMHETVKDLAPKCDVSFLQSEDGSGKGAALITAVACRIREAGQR
Assay: Hexokinase-II inhibitor screening kit (enzyme activity)
Type: biochemical
Settings: compound 1 to 128 μM, 5 min at 25 °C preincubation; read-out: EC50, inhibitory effect on HK-II enzyme activity
Source text: Since nine compounds display the highest cytotoxicity to three different cancer cells, we then verified the effects of the compounds on Hexokinase-II activity. Figure 3 Inhibition of compounds 4244-3659 and K611-0094 on Hexokinase-II activity. […] All data were expressed as mean ± SE from three independent experiments. ** p < 0.01 vs. the control groups. […]
endpoint.label: IC50 (µM)

[[record]]
compound = "Nc1nc(SCC(=O)Nc2cccc([N+](=O)[O-])c2)sc1C(=O)Nc1nccs1 [K611-0094]"
endpoint_label = "IC50"
measured_result = 45


(P) CN1C(=O)[C@](O)(CC(=O)c2cc(O)ccc2O)c2ccccc21 [4244-3659]
(Q) Cc1ccc(C(C)C)c(OC[C@H](O)CNCc2ccccc2)c1 [AP-124/43383769]
Exam item: I'm curious whether P or Q has the smaller IC50 number. Which is it? Select an item and report its label.
Marked response: P
(P: 17.5 µM, Q: 104 µM)
